All values here come from PubChem BioAssay.

Assay: stimulators of nuclear beta-catenin in C2C12, primary screen, imaging, WNT3A-conditioned medium, mouse C2C12, NPC library (AID 1117326); note: reference of the scale not given here
Details: at 10 µM, stronger effect = higher value
ASSAY_METRIC: nuclear beta-catenin stimulation (%)
Give the number; % is assumed, so skip it.

Return nuclear beta-catenin stimulation (reported value) for this compound: CCOC(=O)[C@H](CCc1ccccc1)N[C@H]1CCCN2CCC[C@@H](C(=O)O)N2C1=O
-0.5

Return nuclear beta-catenin stimulation (reported value) for this compound: CN(C)C(=O)Oc1ccc[n+](C)c1
0.1

Return nuclear beta-catenin stimulation (reported value) for this compound: CCOc1ncc(F)c(=O)[nH]1
-1

Return nuclear beta-catenin stimulation (reported value) for this compound: CC(NN)c1ccccc1 (stereo not given)
1.9

Return nuclear beta-catenin stimulation (reported value) for this compound: COc1ccccc1OCCNCC(O)COc1cccc2[nH]c3ccccc3c12 (stereo not given)
10.7

Return nuclear beta-catenin stimulation (reported value) for this compound: CCOc1ccc(NS(=O)(=O)c2ccc(N)cc2)nn1
-0.3

Return nuclear beta-catenin stimulation (reported value) for this compound: N=C(N)c1ccc(OCCCOc2ccc(C(=N)N)cc2)cc1
-2.3

Return nuclear beta-catenin stimulation (reported value) for this compound: CNC(=O)c1cnn(-c2nc(N)c3ncn([C@@H]4O[C@H](CO)[C@@H](O)[C@H]4O)c3n2)c1
2.6
